target: UniProtKB P07943
attributeMeasured: pIC50
Quick note: pIC50 values are minus log10 of concentrations in mol/L.

Which pIC50 reading was recorded for the molecule C/C=C/c1c(C)c(OC)c(C(=O)O)c(C(N)=O)c1O [compound 1] ?
4.16
